- study system: T1, biotinylated ADDL (bADDL) (UniProt P05067 672-713, N-terminal biotin)
- T1 construct: domain: Aβ1-42; Soluble oligomers of Aβ1-42; also called bADDLs; biotinylated high molecular weight ADDL
- protocol description: BIACORE, bADDL as antigen; column IgG1 #1
quantity kind: pKd
Just so you know, pKd here is -log10 of the concentration in molar units; reply with that number alone.

Incoming: Please supply the value of reported pKd for the item 20C2-8B IgG1 (antibody, V domains shown, IgG1 humanized B version; also called SJ-p2-39) VH: QVTLKESGPALVKPTQTLTLTCTLSGFSLSTSGMGVGWIRQPPGKALEWLAHIWWDDDKSYNPSLKSRLTISKDTSKNQVVLTMTNMDPVDTATYYCARRQLGLRSIDAMDYWGQGTTVTVSS VL: DVVMTQSPLSLPVTPGEPASISCRSSQSILHSNGNTYLEWYLQKPGQSPQLLIYKVSNRFSGVPDRFSGSGSGTDFTLKISRVEAEDVGVYYCLQTTRVPLTFGQGTKLEIK
Outgoing: 10.89

Incoming: Please supply the value of reported pKd for the item 20C2-1A IgG1 (antibody, V domains shown, IgG1 humanized A version; also called SJ-p2-60) VH: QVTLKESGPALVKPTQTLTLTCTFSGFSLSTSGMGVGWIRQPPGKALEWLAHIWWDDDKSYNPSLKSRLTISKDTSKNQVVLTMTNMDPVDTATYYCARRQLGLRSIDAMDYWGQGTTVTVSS VL: DVVMTQSPLSLPVTPGEPASISCRSSQSILHSNGNTYLEWYLQKPGQSPQLLIYKVSNRFSGVPDRFSGSGSGTDFTLKISRVEAEDVGVYYCFQASRVPLTFGQGTKLEIK
Outgoing: 10.12
